Values compiled from patent EP4563579A1.

- ASSAY_PROCEDURE: Pharmacokinetic experiment in mice
- Assay type: in vivo
- DETAILS: male, mouse; ICR mice, single oral administration (PO), 10 mg/kg, plasma
RECORDED_METRIC: AUC(0-t) (ng·h/mL)
Note: unit ng·h/mL is implicit; provide only the numeric part.

Solved cases below.
| SMI | OUTPUT_UNIT | AUC(0-t) |
| --- | --- | --- |
| CCCS(=O)(=O)C[C@H]1CCN(c2nn3c4cc(ncc24)Nc2ccnc(n2)-c2cnn(C)c2OCC2(CCCC2)C3)C1 | ng·h/mL | 4290 |
| CCS(=O)(=O)C[C@H]1CCN(c2nn3c4cc(ncc24)Nc2ccnc(n2)-c2cnn(C)c2OCC2(CCCCC2)C3)C1 | ng·h/mL | 10100 |
| CC(C)S(=O)(=O)C[C@H]1CCN(c2nn3c4cc(ncc24)Nc2ccnc(n2)-c2cnn(C)c2OCC2(CCCC2)C3)C1 | ng·h/mL | 6080 |
| CN1CCC(C#Cc2nn3c4cc(ncc24)Nc2ccnc(n2)-c2cnn(C)c2OCC2(CCCC2)C3)CC1 | ng·h/mL | 1030 |

Ask | Recorded AUC(0-t) for Cn1ncc2c1OCC1(CCCC1)Cn1nc(N3CC[C@H](CS(=O)(=O)C4CC4)C3)c3cnc(cc31)Nc1ccnc-2n1 , please?
Reply | 4940

Ask | AUC(0-t) for CCS(=O)(=O)C[C@H]1CCN(c2nn3c4cc(ncc24)Nc2ccnc(n2)-c2cnn(C)c2OCC2(CCCC2)C3)C1 ?
Reply | 5570

Ask | What value of AUC(0-t) has been recorded for this entry: CCN1CCC(C#Cc2nn3c4cc(ncc24)Nc2ccnc(n2)-c2cnn(C)c2OCC2(CCCC2)C3)CC1
Reply | 2520

Ask | Recorded AUC(0-t) for CCS(=O)(=O)C[C@@H]1CCN(c2nn3c4cc(ncc24)Nc2ccnc(n2)-c2cnn(C)c2OCC2(CCCC2)C3)C1 , please?
Reply | 4540

Ask | GET /values?readout=AUC(0-t)&item= Cn1ncc2c1OCC1(CCCC1)Cn1nc(N3CC[C@H](NC(=O)C4CC4)C3)c3cnc(cc31)Nc1ccnc-2n1
Reply | 1730

Ask | Name the reported AUC(0-t) value associated with the compound COC(=O)N[C@@H]1CCN(c2nn3c4cc(ncc24)Nc2ccnc(n2)-c2cnn(C)c2OCC2(CCCC2)C3)C1
Reply | 2690

* * *

- ASSAY_PROCEDURE: Pharmacokinetic experiment in mice
- Format: in vivo
- DETAILS: male, mouse; ICR mice, single oral administration (PO), 10 mg/kg, plasma
This listing pairs compounds with measured half-life.
Dear colleague, please return just the value in h, with no unit written.

// below: answered compounds
| SMI | half-life [h] |
| --- | --- |
| CN1CCC(C#Cc2nn3c4cc(ncc24)Nc2ccnc(n2)-c2cnn(C)c2OCC2(CCCC2)C3)CC1 | 3.5 |
| Cn1ncc2c1OCC1(CCCC1)Cn1nc(N3CC[C@H](CS(C)(=O)=O)C3)c3cnc(cc31)Nc1ccnc-2n1 | 4.7 |
| Cn1ncc2c1OCC1(CCCC1)Cn1nc(N3CC[C@@H](O)C3)c3cnc(cc31)Nc1ccnc-2n1 | 3 |

Ask | For the compound shown here, CN1CCC(C#Cc2nn3c4cc(ncc24)Nc2ccnc(n2)-c2cnn(C)c2OCC2(CCCCC2)C3)CC1 , give the reported half-life.
Reply | 5.6
